System: K562
assay explanation: Cell cycle arrest in human K562 cells assessed as gated cell levels at subG1 phase at antiproliferative IC50 after 72 hrs by propidium iodide staining based flow cytometry (reference value: 0.44 to 0.55%)
Format: functional
attribute measured: Activity (%)
Your answer should be a plain number; it is taken to be in %.

Query: Answer with the recorded Activity for the molecule listed here: "O=C1C[C@H]2O[C@H](CCl)[C@H](O)[C@H]2O1"
Response: 0.67

Query: Answer with the recorded Activity for the molecule listed here: "O=C1C[C@H]2O[C@H](CO)[C@H](O)[C@H]2O1"
Response: 1

Query: Answer with the recorded Activity for the molecule listed here: "O=C1C[C@H]2O[C@H](CF)[C@H](O)[C@H]2O1"
Response: 9.33

Query: Answer with the recorded Activity for the molecule listed here: "O=C1C[C@H]2O[C@H]([C@@H](F)c3ccccc3)[C@H](O)[C@H]2O1"
Response: 1.68

Query: Answer with the recorded Activity for the molecule listed here: "O=C1C[C@H]2O[C@H](CI)[C@H](O)[C@H]2O1"
Response: 2.01

Query: Answer with the recorded Activity for the molecule listed here: "O=C1C[C@H]2O[C@H]([C@H](Cl)c3ccccc3)[C@H](O)[C@H]2O1"
Response: 2.05
